Measured IC50 values are reported for all entries that follow.
# Test target: NRAS G12C (Homo sapiens, UniProt P01111+P62937, G12C)
# Sequence (P01111 whole entry G12C): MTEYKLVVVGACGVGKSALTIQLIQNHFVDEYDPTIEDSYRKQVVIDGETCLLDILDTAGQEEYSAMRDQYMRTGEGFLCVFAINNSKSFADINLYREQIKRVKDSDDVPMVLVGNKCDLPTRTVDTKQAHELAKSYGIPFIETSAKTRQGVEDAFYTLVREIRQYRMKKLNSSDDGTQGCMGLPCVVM
# Sequence (P62937 whole entry): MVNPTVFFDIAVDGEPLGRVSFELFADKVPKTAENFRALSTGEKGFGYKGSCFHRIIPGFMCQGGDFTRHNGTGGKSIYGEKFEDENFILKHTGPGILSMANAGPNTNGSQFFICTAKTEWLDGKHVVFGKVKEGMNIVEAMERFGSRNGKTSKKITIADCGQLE
# Assay details: Ras-Raf disruption / FRET / MOA assay (BRAF RBD)
# Type: biochemical
# Details: NRAS G12C; read-out: NRAS G12C FRET data IC50

Example cases with answers are listed next.
Molecule | IC50
CCn1c(-c2cccnc2[C@H](C)OC)c2c3cc(ccc31)-c1cc(O)cc(c1)C[C@H](NC(=O)[C@H](C(C)C)N(C)C(=O)C1CC3(C1)CN(C(=O)[C@@H]1CN1)C3)C(=O)N1CCC[C@H](N1)C(=O)OCC(C)(C)C2 [Example 180] | 100 to 1000 nM
CCOC(=O)[C@H]1O[C@@H]1C(=O)N1CC[C@H](C(=O)N(C)[C@H](C(=O)N[C@H]2Cc3cc(O)cc(c3)-c3ccc4c(c3)c(c(-c3cccnc3[C@H](C)OC)n4CC)CC(C)(C)COC(=O)[C@@H]3CCCN(N3)C2=O)C(C)C)C1 [Example 329] | < 10 nM
CCn1c(-c2cccnc2[C@H](C)OC)c2c3cc(ccc31)-c1csc(n1)C[C@H](NC(=O)[C@H](C(C)C)N(C)C(=O)N1CCN(C(=O)[C@H]3CN3)CC1)C(=O)N1CCC[C@H](N1)C(=O)OCC(C)(C)C2 [Example 169] | 10 to 100 nM
CCn1c(-c2cnccc2COC)c2c3cc(ccc31)-c1cccc(c1)C[C@H](NC(=O)[C@H](C(C)C)N(C)C(=O)CC1(N=C=Nc3ccc(OC)cc3)CC1)C(=O)N1CCC[C@H](N1)C(=O)OCC(C)(C)C2 [65 A and B] | > 10000 nM
CCn1c(-c2cccnc2[C@H](C)OC)c2c3cc(ccc31)-c1cc(O)cc(c1)C[C@H](NC(=O)[C@H](C(C)C)N(C)C(=O)CC1CN(C(=O)[C@H]3CN3)C1)C(=O)N1CCC[C@H](N1)C(=O)OCC(C)(C)C2 [Example 179] | 10 to 100 nM
CCn1c(-c2cccnc2[C@H](C)OC)c2c3cc(ccc31)-c1cc(O)cc(c1)C[C@H](NC(=O)[C@H](C(C)C)N(C)C(=O)c1ncc(NC(=O)[C@H]3CN3)n1C)C(=O)N1CCC[C@H](N1)C(=O)OCC(C)(C)C2 [Example 84] | 10 to 100 nM
CCn1c(-c2cccnc2[C@H](C)OC)c2c3cc(ccc31)-c1cc(O)cc(c1)C[C@H](NC(=O)[C@H](C(C)C)N(C)C(=O)[C@H]1CCN(C(=O)C3OC3c3ccccc3)C1)C(=O)N1CCC[C@H](N1)C(=O)OCC(C)(C)C2 (some centres unmarked) [Example 331] | 10 to 100 nM

Shift focus to the following entry.
Dear colleague, I am looking for the recorded IC50 of the following molecule: CCn1c(-c2cccnc2[C@H](C)OC)c2c3cc(ccc31)-c1cc(O)cc(c1)C[C@H](NC(=O)[C@H](C(C)C)N(C)C(=O)[C@@H]1CCCN(C(=O)[C@H]3CN3)C1)C(=O)N1CCC[C@H](N1)C(=O)OCC(C)(C)C2 (atropisomer, axis not shown) [Example 237]
10 to 100 nM

---

# Test target: KRAS G12V (Homo sapiens, UniProt P01116+P62937, G12V)
# Sequence (P01116 1-169 isoform P01116-2 G12V limits assumed, one chain of several): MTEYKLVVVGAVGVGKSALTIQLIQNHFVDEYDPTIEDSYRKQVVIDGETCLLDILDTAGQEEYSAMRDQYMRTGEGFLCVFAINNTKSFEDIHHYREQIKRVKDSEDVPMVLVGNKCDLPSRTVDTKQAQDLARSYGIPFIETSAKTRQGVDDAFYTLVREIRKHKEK
# Assay details: Ras-Raf disruption / FRET / MOA assay (BRAF RBD)
# Type: biochemical
# Details: Ras-Raf disruption, with Cyclophilin A; read-out: KRAS G12V FRET data IC50
pIC50: −log10 of the molar value.
Measured pIC50 values are reported for all entries that follow.

Example cases with answers are listed next.
Molecule | Test target | Result
CCn1c(-c2cccnc2[C@H](C)OC)c2c3cc(ccc31)-c1cc(O)cc(c1)C[C@H](NC(=O)[C@H](C(C)C)N1CCC3(CCN(C(=O)[C@@H]4CN4)C3)C1=O)C(=O)N1CCC[C@H](N1)C(=O)OCC(C)(C)C2 (some centres unmarked) | KRAS G12V (Homo sapiens, UniProt P01116+P62937, G12V) | 7.00 to 8.00
CCn1c(-c2cccnc2[C@H](C)OC)c2c3cc(ccc31)-c1csc(n1)C[C@H](NC(=O)[C@H](C(C)C)N(C)C(=O)N1CCC(CN(C)C(=O)[C@H]3CN3)CC1)C(=O)N1CCC[C@H](N1)C(=O)OCC(C)(C)C2 (atropisomer, axis not shown) | KRAS G12V (Homo sapiens, UniProt P01116+P62937, G12V) | 7.00 to 8.00
CCn1c(-c2cccnc2[C@H](C)OC)c2c3cc(ccc31)-c1cc(O)cc(c1)C[C@H](NC(=O)[C@H](C(C)C)N(C)C(=O)C1CCN(S(=O)(=O)[C@@H]3CN3C)CC1)C(=O)N1CCC[C@H](N1)C(=O)OCC(C)(C)C2 (single isomer, unassigned) | KRAS G12V (Homo sapiens, UniProt P01116+P62937, G12V) | 6.00 to 7.00
CCn1c(-c2cccnc2[C@H](C)OC)c2c3cc(ccc31)-c1cc(O)cc(c1)C[C@H](NC(=O)[C@H](C(C)C)N1CC[C@@]3(CCN(C(=O)[C@H]4CN4)C3)C1=O)C(=O)N1CCC[C@H](N1)C(=O)OCC(C)(C)C2 | KRAS G12V (Homo sapiens, UniProt P01116+P62937, G12V) | 7.00 to 8.00
CCn1c(-c2cccnc2[C@H](C)OC)c2c3cc(ccc31)-c1cc(O)cc(c1)C[C@H](NC(=O)[C@H](C1CCCC1)N1CC[C@@]3(CCN(C(=O)[C@H]4CN4)C3)C1=O)C(=O)N1CCC[C@H](N1)C(=O)OCC(C)(C)C2 | KRAS G12V (Homo sapiens, UniProt P01116+P62937, G12V) | 7.00 to 8.00
CCn1c(-c2cccnc2[C@H](C)OC)c2c3cc(ccc31)-c1cc(O)cc(c1)C[C@H](NC(=O)[C@H](C(C)C)N(C)C(=O)[C@H]1CCN(C(=O)C3OC3c3ccccc3)C1)C(=O)N1CCC[C@H](N1)C(=O)OCC(C)(C)C2 (some centres unmarked) | KRAS G12V (Homo sapiens, UniProt P01116+P62937, G12V) | 7.00 to 8.00
CCn1c(-c2cccnc2[C@H](C)OC)c2c3cc(ccc31)-c1csc(n1)C[C@H](NC(=O)[C@H](C(C)C)N(C)C(=O)N(C)[C@H]1CCN(C(=O)[C@@H]3CN3)C1)C(=O)N1CCC[C@H](N1)C(=O)OCC(C)(C)C2 (atropisomer, axis not shown) | KRAS G12V (Homo sapiens, UniProt P01116+P62937, G12V) | 6.00 to 7.00

Shift focus to the following entry.
API: value(readout= pIC50, system= KRAS G12V (Homo sapiens, UniProt P01116+P62937, G12V), query= "CCn1c(-c2cccnc2[C@H](C)OC)c2c3cc(ccc31)-c1csc(n1)C[C@H](NC(=O)[C@H](C(C)C)N(C)C(=O)N(C)C1CN(C(=O)[C@@H]3CN3)C1)C(=O)N1CCC[C@H](N1)C(=O)OCC(C)(C)C2" )
6.00 to 7.00
